Quick reference for MBEC among some compounds
test system: biofilm-producing Staphylococcus epidermidis strains; test: Biofilm eradication (MBEC Assay Kit); assay type: cell-based; details: clinical strain 43 (Table S4)
Numbers only; they are read as µg/mL.

compound: O=S(=O)(NC1CCN(CCC(Oc2ccc(C(F)(F)F)cc2)c2ccccc2)CC1)c1cccc(Cl)c1 (stereo not shown) [Compound 12]
obs.value: 250

compound: O=C(Nc1cccc(Cl)c1)NC1CCN(CCC(Oc2ccc(C(F)(F)F)cc2)c2cccs2)CC1 (stereo not shown) [Compound 25]
obs.value: 31.25

compound: O=S(=O)(NC1CCN(CCC(Oc2ccc(C(F)(F)F)cc2)c2cccs2)CC1)c1cccc(Cl)c1 (stereo not shown) [Compound 14]
obs.value: 250

Would you kindly look at the next entry?
Reported MBEC for biofilm-producing Staphylococcus epidermidis strains, given CC(=O)NC[C@H]1CN(c2ccc(N3CCOCC3)c(F)c2)C(=O)O1 [linezolid, reference compound] ?
50
